Measured pKd, listed per entry.
# system: SARS-CoV-2 RBD (WT) (SARS-CoV-2 Wuhan-Hu-1 (wildtype), UniProt P0DTC2)
# assay.method.text: BLI
# experimental.setup: both partners purified
pKd: −log10 of the molar value.
measured.parameter: pKd

[[record]]
binder = "H16 (antibody, V domains shown, human IgG1) VH: QLQLQESGPGLVKPSETLSLTCTVSGGSISSSSYYWGWIRQPPGKGLEWIGSIYYSGSTYYNPSLKSRVTISVDTSKNQFSLKLSSVTAADTAVYYCARREWLRGPFDYWGQGTLVTVSS VL: NFMLTQPHSVSESPGKTVTISCTRSSGSIASNYVQWYQQRPGSSPTTVIYEDNQRPSGVPDRFSGSIDSSSNSASLTISGLKTEDEADYYCQSYDSSNVVFGGGTKLTVL"
recorded_value = 7.01

[[record]]
binder = "H5 (antibody, V domains shown, human IgG1) VH: QVQLVESGGGLVKPGGSLRLSCAASGFTFSDYYMSWIRQAPGKGLEWVSYISSSGSTIYYADSVKGRFTISRDNAKNSLYLQMNSLRAEDTAVYYCARAKWLRGHFDYWGQGTLVTVSS VL: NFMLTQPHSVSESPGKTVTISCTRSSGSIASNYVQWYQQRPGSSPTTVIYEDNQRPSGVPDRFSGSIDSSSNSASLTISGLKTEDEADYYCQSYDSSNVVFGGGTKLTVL"
recorded_value = 5.82

[[record]]
binder = "H4 (antibody, V domains shown) VH: EVQLVESGGGLVQPGGSLRLSCAASGFTFSSYWMSWVRQAPGKGLEWVANIKQDGSEKYYVDSVKGRFTISRDNAKNSLYLQMNSLRAEDTAVYYCASQLWLRGAFDIWGQGTMVTVSS VL: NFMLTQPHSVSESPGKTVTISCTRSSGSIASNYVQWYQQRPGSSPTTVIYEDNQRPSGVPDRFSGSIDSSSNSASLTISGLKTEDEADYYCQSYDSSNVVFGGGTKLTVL"
recorded_value = 7.52

[[record]]
binder = "H14 (antibody, V domains shown, human IgG1) VH: QVQLQESGPGLVKPSQTLSLTCTVSGGSISSGGYYWSWIRQHPGKGLEWIGYIYYSGSTYYNPSLKSLVTISVDTSKNQFSLKLSSVTAADTAVYYCARKGWLRGAFDIWGQGTMVTVSS VL: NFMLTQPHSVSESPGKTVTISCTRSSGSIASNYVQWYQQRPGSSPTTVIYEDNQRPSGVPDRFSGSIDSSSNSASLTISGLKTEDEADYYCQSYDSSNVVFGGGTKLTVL"
recorded_value = 7.47

